experiment: Pharmacokinetics of CBP501, single agent study; format: in vivo, human; conditions: human, in vivo, 0.9 mg/m2, single agent, 0.9 mg/m^2, Day 1, mean, N 4
Structures can show the parent of a compound that is named as a salt. Square brackets hold non-standard residues; d marks the D form. Peptide text beside a SMILES is read from it. dPhe(F5) = N[C@H](Cc1c(F)c(F)c(F)c(F)c1F)C(=O)O; dBpa = N[C@H](Cc1ccc(C(=O)c2ccccc2)cc1)C(=O)O; dCha = N[C@H](CC1CCCCC1)C(=O)O
MEASUREMENT TYPE: clearance (mL/min/kg)
Supply the numeric figure in mL/min/kg, leaving out any unit text.

Value of clearance reported for the molecule N=C(N)NCCC[C@@H](NC(=O)[C@@H](CCCNC(=N)N)NC(=O)[C@@H](CCC(N)=O)NC(=O)[C@@H](CCCNC(=N)N)NC(=O)[C@@H](CCCNC(=N)N)NC(=O)[C@@H](CCCNC(=N)N)NC(=O)[C@@H](CC1CCCCC1)NC(=O)[C@@H](Cc1c(F)c(F)c(F)c(F)c1F)NC(=O)[C@@H](CO)NC(=O)[C@@H](Cc1c[nH]c2ccccc12)NC(=O)[C@@H](CO)NC(=O)[C@H](N)Cc1ccc(C(=O)c2ccccc2)cc1)C(=O)O [CBP501, acetate salt] (H-[dBpa][dS][dW][dS][dPhe(F5)][dCha][dR][dR][dR][dQ][dR][dR]-OH) is 2.05

----------
assay: Pharmacokinetics of CBP501, single agent study; assay type: in vivo, human; details: human, in vivo, 9.57 mg/m2, single agent, 9.57 mg/m^2, Day 1, mean, N 3
Counter-ions that a name gives are not always drawn. Square brackets hold non-standard residues; d marks the D form. Peptide text beside a SMILES is read from it. dPhe(F5) = N[C@H](Cc1c(F)c(F)c(F)c(F)c1F)C(=O)O; dBpa = N[C@H](Cc1ccc(C(=O)c2ccccc2)cc1)C(=O)O; dCha = N[C@H](CC1CCCCC1)C(=O)O
MEASUREMENT TYPE: Cmax
Don't forget the unit after the value.

Value of Cmax reported for the molecule N=C(N)NCCC[C@@H](NC(=O)[C@@H](CCCNC(=N)N)NC(=O)[C@@H](CCC(N)=O)NC(=O)[C@@H](CCCNC(=N)N)NC(=O)[C@@H](CCCNC(=N)N)NC(=O)[C@@H](CCCNC(=N)N)NC(=O)[C@@H](CC1CCCCC1)NC(=O)[C@@H](Cc1c(F)c(F)c(F)c(F)c1F)NC(=O)[C@@H](CO)NC(=O)[C@@H](Cc1c[nH]c2ccccc12)NC(=O)[C@@H](CO)NC(=O)[C@H](N)Cc1ccc(C(=O)c2ccccc2)cc1)C(=O)O [CBP501, acetate salt] (H-[dBpa][dS][dW][dS][dPhe(F5)][dCha][dR][dR][dR][dQ][dR][dR]-OH) is 2890 ng/mL

----------
experiment: Pharmacokinetics of CBP501, single agent study; format: in vivo, human; conditions: human, in vivo, 0.9 mg/m2, single agent, 0.9 mg/m^2, Day 15, mean, N 3
Where a name gives a salt, the structure may show the parent alone. Square brackets hold non-standard residues; d marks the D form. Peptide text beside a SMILES is read from it. dPhe(F5) = N[C@H](Cc1c(F)c(F)c(F)c(F)c1F)C(=O)O; dBpa = N[C@H](Cc1ccc(C(=O)c2ccccc2)cc1)C(=O)O; dCha = N[C@H](CC1CCCCC1)C(=O)O
MEASUREMENT TYPE: AUC(0-inf)
Don't forget the unit after the value.

Value of AUC(0-inf) reported for the compound N=C(N)NCCC[C@@H](NC(=O)[C@@H](CCCNC(=N)N)NC(=O)[C@@H](CCC(N)=O)NC(=O)[C@@H](CCCNC(=N)N)NC(=O)[C@@H](CCCNC(=N)N)NC(=O)[C@@H](CCCNC(=N)N)NC(=O)[C@@H](CC1CCCCC1)NC(=O)[C@@H](Cc1c(F)c(F)c(F)c(F)c1F)NC(=O)[C@@H](CO)NC(=O)[C@@H](Cc1c[nH]c2ccccc12)NC(=O)[C@@H](CO)NC(=O)[C@H](N)Cc1ccc(C(=O)c2ccccc2)cc1)C(=O)O [CBP501, acetate salt] (H-[dBpa][dS][dW][dS][dPhe(F5)][dCha][dR][dR][dR][dQ][dR][dR]-OH) is 188 ng·h/mL

----------
assay: Pharmacokinetics of CBP501, combination study; assay type: in vivo, human; settings: human, in vivo, combination with cisplatin, CBP501 16.2 mg/m^2, Day 1, mean, N 3
Structures can show the parent of a compound that is named as a salt. Square brackets hold non-standard residues; d marks the D form. Peptide text beside a SMILES is read from it. dPhe(F5) = N[C@H](Cc1c(F)c(F)c(F)c(F)c1F)C(=O)O; dBpa = N[C@H](Cc1ccc(C(=O)c2ccccc2)cc1)C(=O)O; dCha = N[C@H](CC1CCCCC1)C(=O)O
MEASUREMENT TYPE: half-life (h)
Supply the numeric figure in h, leaving out any unit text.

Value of half-life reported for the compound N=C(N)NCCC[C@@H](NC(=O)[C@@H](CCCNC(=N)N)NC(=O)[C@@H](CCC(N)=O)NC(=O)[C@@H](CCCNC(=N)N)NC(=O)[C@@H](CCCNC(=N)N)NC(=O)[C@@H](CCCNC(=N)N)NC(=O)[C@@H](CC1CCCCC1)NC(=O)[C@@H](Cc1c(F)c(F)c(F)c(F)c1F)NC(=O)[C@@H](CO)NC(=O)[C@@H](Cc1c[nH]c2ccccc12)NC(=O)[C@@H](CO)NC(=O)[C@H](N)Cc1ccc(C(=O)c2ccccc2)cc1)C(=O)O [CBP501, acetate salt] (H-[dBpa][dS][dW][dS][dPhe(F5)][dCha][dR][dR][dR][dQ][dR][dR]-OH) is 2.8

----------
assay: Pharmacokinetics of CBP501, combination study; assay type: in vivo, human; conditions: human, in vivo, combination with cisplatin, CBP501 24.3 mg/m^2, Day 1, mean, N 2
Structures can show the parent of a compound that is named as a salt. Square brackets hold non-standard residues; d marks the D form. Peptide text beside a SMILES is read from it. dPhe(F5) = N[C@H](Cc1c(F)c(F)c(F)c(F)c1F)C(=O)O; dBpa = N[C@H](Cc1ccc(C(=O)c2ccccc2)cc1)C(=O)O; dCha = N[C@H](CC1CCCCC1)C(=O)O
MEASUREMENT TYPE: Cmax

Value of Cmax reported for the compound N=C(N)NCCC[C@@H](NC(=O)[C@@H](CCCNC(=N)N)NC(=O)[C@@H](CCC(N)=O)NC(=O)[C@@H](CCCNC(=N)N)NC(=O)[C@@H](CCCNC(=N)N)NC(=O)[C@@H](CCCNC(=N)N)NC(=O)[C@@H](CC1CCCCC1)NC(=O)[C@@H](Cc1c(F)c(F)c(F)c(F)c1F)NC(=O)[C@@H](CO)NC(=O)[C@@H](Cc1c[nH]c2ccccc12)NC(=O)[C@@H](CO)NC(=O)[C@H](N)Cc1ccc(C(=O)c2ccccc2)cc1)C(=O)O [CBP501, acetate salt] (H-[dBpa][dS][dW][dS][dPhe(F5)][dCha][dR][dR][dR][dQ][dR][dR]-OH) is 6830 ng/mL

----------
Assay: Pharmacokinetics of CBP501, single agent study
Format: in vivo, human
Conditions: human, in vivo, 22.5 mg/m2, single agent, 22.5 mg/m^2, Day 1, mean, N 7
Source text: PK was examined in cycle (cy) 1. MTD is the level below that where 2 of 3-6 patients (pts) have DLT during cy 1-2. In the single agent study, PK was examined in cycle 1. Samples were collected on Days 1 and 15 before the start of the infusion, then at various time points over 24 hr from the start of the infusion, as described below.
Structures can show the parent of a compound that is named as a salt. Square brackets hold non-standard residues; d marks the D form. Peptide text beside a SMILES is read from it. dPhe(F5) = N[C@H](Cc1c(F)c(F)c(F)c(F)c1F)C(=O)O; dBpa = N[C@H](Cc1ccc(C(=O)c2ccccc2)cc1)C(=O)O; dCha = N[C@H](CC1CCCCC1)C(=O)O
MEASUREMENT TYPE: AUC(0-inf) (ng·h/mL)
Supply the numeric figure in ng·h/mL, leaving out any unit text.

Value of AUC(0-inf) reported for the compound N=C(N)NCCC[C@@H](NC(=O)[C@@H](CCCNC(=N)N)NC(=O)[C@@H](CCC(N)=O)NC(=O)[C@@H](CCCNC(=N)N)NC(=O)[C@@H](CCCNC(=N)N)NC(=O)[C@@H](CCCNC(=N)N)NC(=O)[C@@H](CC1CCCCC1)NC(=O)[C@@H](Cc1c(F)c(F)c(F)c(F)c1F)NC(=O)[C@@H](CO)NC(=O)[C@@H](Cc1c[nH]c2ccccc12)NC(=O)[C@@H](CO)NC(=O)[C@H](N)Cc1ccc(C(=O)c2ccccc2)cc1)C(=O)O [CBP501, acetate salt] (H-[dBpa][dS][dW][dS][dPhe(F5)][dCha][dR][dR][dR][dQ][dR][dR]-OH) is 16500
